tested_on: T1, human AXL (full length) (human, UniProt P30530 26-894)
T1 construct: also called TH1021-AXL; TH1021-hAXL
experiment_notes: FMAT screening assay, HEK-293F cells transiently expressing human AXL
quantity_kind: Maximal binding (Arbitrary units) (arbitrary units)

binder	unit	measured_result
IgG1-AXL-140 (antibody, V domains shown) VH: EVQLLESGGGLVQPGGSLRLSCAASGFTFSSYAMTWVRQAPGKGLEWVSAISISGASTFYADSVKGRFTISRDNSKNTLSLQMNSLRAEDTAVYFCRGYSGYVYDAFDIWGQGTMVTVSS VL: DIQMTQSPSSLSASVGDRVTITCRASQGISNWLAWYQQKPEKAPKSLIYAASSLQSGVPSRFSGSGSGTDFTLTISSLQPEDFATYYCQQYNSYPLTFGGGTKVEIK	arbitrary units	2890
IgG1-AXL-148 (antibody, V domains shown) VH: EVQLLESGGGLVQPGGSLRLSCAASGFTFSSYAMTWVRQAPGKGLEWVSAISISGGSTFYADSVKGRFTISRDNSKNTLYLQMNSLRAEDTAVYYCRGYSGYVYDAFDFWGQGTMVTVSS VL: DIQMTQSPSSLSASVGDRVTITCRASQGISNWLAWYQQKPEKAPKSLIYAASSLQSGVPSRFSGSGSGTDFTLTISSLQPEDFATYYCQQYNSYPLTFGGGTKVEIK	arbitrary units	3500
IgG1-AXL-613-08 (antibody, V domains shown) VH: QVQLVQSGAEVKKPGSSVKVSCKASGGTFSSYAINWMRQAPGQGLEWMGRIIPIFGIVNYAQKFQGRVTLTADKSTSTAYMELSSLRSEDTAVYYCARRGNYYGSGSPDVFDIWGQGTMVTVSS VL: EIVLTQSPATLSLSPGERATLSCRASQSVSSYLAWYQQKPGQAPRLLIYDASNRATGIPARFSGSGSGTDFTLTISSLEPEDFAVYYCQQRSNWLTFGGGTKVEIK	arbitrary units	2210
IgG1-AXL-726 (antibody, V domains shown) VH: QVQLQQWGAGLLKPSETLSLTCAIDGGSFSGYYWSWIRQPPGKGLEWIGEISHSGRTNYNPSLKSRVTISIDTSKNQFSLKLSSVAAADTAVYYCARFITMIRGAIITHFDYWGQGALVTVSS VL: DIQMTQSPSSLSASVGDRVTITCRASQGISSWLAWYQQKPEKAPKSLIYAASSLQSGVPSRFSGSGSGTDFTLTISSLQPEDFATYYCQQYHSYPYTFGQGTKLEIK	arbitrary units	3150
IgG1-AXL-187 (antibody, V domains shown) VH: QVPLQQWGAGLLKPSETLSLTCAVYGGSFSGYHWSWIRQPPGKGLEWIGEISHSGRTNYNPSLKSRVTISIDTSKNQFSLKLSSVTAADTAVYYCASFITMIRGTIITHFDYWGQGTLVTVSS VL: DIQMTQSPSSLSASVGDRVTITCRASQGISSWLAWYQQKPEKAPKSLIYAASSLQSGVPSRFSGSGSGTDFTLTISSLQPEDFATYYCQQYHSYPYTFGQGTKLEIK	arbitrary units	2560
